Target: human GLP-1 receptor (human, UniProt P43220 24-463)
Assay: cell-based or functional assay
Square brackets hold non-standard residues; d marks the D form. Chem. 27 = not defined here; Aib = CC(C)(N)C(=O)O
Assign hGLP-1R Potency, no HSA, EC50 [pM] to each entry below.
One number for each entry, in pM.

Compound 189 (reading uncertain) peptide: Y[Aib]EGTFTSDYSILLEEIAAREFIEWLLAGGPSSGAGEAPGEAPGASHLSTAQTQRLSAELHK(Chem. 27)LATLPRTETGSGSP-NH2; 26.9

For the next question, use this binder.
Sample Compound 181 (reading uncertain) peptide: Y[Aib]EGTFTSDYSILLEEIAAREFIEWLLAGGPSSEAGASQLSTAQTQRLSAELHK(Chem. 27)LATLPRTETGSGSP-NH2 ; hGLP-1R Potency, no HSA, EC50 [pM] observed: 28.8
